Test system: UACC-62 melanoma
experimental_protocol: NCI tumour cell line growth inhibition, 48 h; in the data active = GI50 below about 0.43 µM; inactive = the rest
Your reply should match one of these outcome classes. t = active, f = inactive

Please review the entries below; each comes with its answer.
compound | qualitative_label
COC(=O)c1cc2c(cc1Cl)SC1=NN(C)C(N(C)C)N1S2(=O)=O (centres undefined) | f
Nc1nc(Nc2ccccc2SSc2ccccc2Nc2nc(N)nc(C(Cl)(Cl)Cl)n2)nc(C(Cl)(Cl)Cl)n1 | f

Query string: In this assay, the call recorded for CCC1(O)C(=O)OCc2c1cc1n(c2=O)Cc2cc3c(NC(=O)CN)cccc3nc2-1 (centres undefined) was what?
Result string: t

Query string: Tell me the assay call for Oc1c(I)cc(I)c2cccnc12 please.
Result string: f

Query string: I'd appreciate the recorded outcome for Cc1ccc(-c2nc([P+](c3ccccc3)(c3ccccc3)c3ccccc3)c(S(=O)(=O)c3ccc(C)cc3)o2)cc1 from this test.
Result string: f

Query string: Which outcome was assigned to Oc1cccc2ccc(N/N=C/c3cc(CN4CCOCC4)c(O)c4ncccc34)nc12 in this test?
Result string: t

----------
Tested on: M14 melanoma
experimental_protocol: NCI tumour cell line growth inhibition, 48 h
Measured TGI accompanies every entry in the list below.

Examples from the recorded data:
compound | TGI
O=C(CC1SC(=Nc2ccccc2Cl)NC1=O)Nc1ccc(Cl)cc1Cl (stereo not drawn) | > 100 µM
c1ccc(CCc2cccnc2)nc1 | > 100 µM
c1cc2nnc1SCCCSc1ccc(nn1)SCCCS2 | > 57.6 µM
C=C1CC(c2ccc(OCCCN3C(=O)c4ccccc4C3=O)cc2)OC1=O (stereo not drawn) | 9.09 µM
CCOP1(=O)C=C(C)C(Cl)=C(C)C1 (stereo not drawn) | 70.9 µM

Query string: Form: Entry = COc1ncnc(NS(=O)(=O)c2ccc(N=C3C(=O)N(CN4CCN(c5c(F)cc6c(=O)c(C(=O)O)cn(C7CC7)c6c5OC)CC4C)c4ccc(Br)cc43)cc2)c1OC (stereo not drawn) | System = M14 melanoma | TGI = ____
Result string: > 50 µM

Query string: Give recorded TGI with M14 melanoma for the following compound: CC1(C)CC(=O)C(/C(=N/NC(=S)NN)C(=O)Nc2nc3ccc([N+](=O)[O-])cc3s2)C(=O)C1
Result string: > 100 µM

Query string: Kindly state the measured TGI obtained for C/C(=C\CBr)CCC(Br)C(C)(C)Cl (stereo not drawn) with M14 melanoma.
Result string: > 100 µM

----------
System: NCI-H23 lung
experimental_protocol: NCI tumour cell line growth inhibition, 48 h; in the data active = GI50 below about 0.43 µM; inactive = the rest
Would you mind answering with one of these outcomes? TRUE for active, FALSE for inactive

Worked cases, answers included:
compound | qualitative_label
COC(=O)[C@H]1CCCN1C(=O)[C@H]1CCCN1C(=O)[C@@H](Cc1c[nH]c2ccccc12)NC(=S)Nc1cc(C(F)(F)F)cc(C(F)(F)F)c1 | FALSE
c1ccc2c(c1)Nc1ccncc1S2 | FALSE

Query string: Dear colleague, could you share the recorded outcome for CC(=O)NCc1cccc(C#Cc2cncnc2Nc2ccc(OCc3cccc(F)c3)c(Cl)c2)c1 when you have a moment?
Result string: FALSE

Query string: Outcome? COc1cc2nc(-c3cc(F)ccc3O)nc(N[C@@H]3CNC[C@H]3C(C)(C)O)c2cc1OC
Result string: FALSE

Query string: Status in this test for CCCCCO/N=C\c1c2c(O)c3c(O)c(C)c4c(c3c1O)C(=O)C(C)(O/C=C\C(OC)C(C)C(OC(C)=O)C(C)C(O)C(C)C(O)C(C)/C=C\C=C(\C)C(=O)N2)O4 (configuration not stated) ?
Result string: FALSE

Query string: // outcome(item) with item = Oc1ccc(C(c2ccc(O)cc2)c2ccc(Br)cn2)cc1
Result string: TRUE

Query string: Assay outcome for Cn1cc(C2=C(c3cccc(OC[C@@H](O)CO)c3)C(=O)NC2=O)c2ccccc21 : what was it?
Result string: FALSE

Query string: What did the test return for CCC1(O)C(=O)OCc2c1cc1n(c2=O)Cc2cc3c(NC(=O)CN)cccc3nc2-1 (configuration not stated) ?
Result string: TRUE

Query string: Fill in: this test's call for CN(CCNCc1ccccn1)CCNCc1ccccn1 is ___
Result string: FALSE

Query string: Outcome logged for CC1OC(OC2C(O)CC(OC3C(O)CC(OC4CCC5(C)C(CCC6C5CC(O)C5(C)C(C7=CC(=O)OC7)CCC65O)C4)OC3C)OC2C)CC(O)C1O (configuration not stated) in this assay:
Result string: TRUE

Query string: Recorded test outcome, item O=C(CCCCCCN1CC(=O)N2[C@@H](c3ccc(Cl)c(Cl)c3)c3[nH]c4ccccc4c3C[C@H]2C1=O)NO
Result string: FALSE

Query string: Assay outcome for CC1(C)CC(=O)C2=C(C1)OC(N)=C(c1nc(-c3ccccc3)cs1)C2c1ccc(Br)cc1 (configuration not stated) : what was it?
Result string: FALSE

Query string: Check the results log: what was the call for C/C(=N/N=C(\[O-])c1ccncc1)C(F)(F)F.C/C(=N\N=C(/[O-])c1ccncc1)C(F)(F)F.[Ni+2] ?
Result string: FALSE

Query string: For CCN(CC)CCCCCCNc1cc(OC)cc2cccnc12 , what call appears in the results of this test?
Result string: FALSE

Query string: What classification did c1ccc2cc(-c3n(Cc4ccc5ccccc5n4)c4ccccc4[n+]3Cc3ccc4ccccc4n3)ccc2c1 end up with in this test?
Result string: TRUE

Query string: Record lookup: outcome of this test for COc1ccc(-c2nc(/C=C3\SC(=NCc4ccccc4)NC3=O)c3ccccn23)cc1 ?
Result string: FALSE

Query string: Identify the outcome logged in this assay for the compound shown: N#CC1=C(/N=C/c2ccccc2)Oc2c(ccc3ccccc23)C1c1ccccc1 (configuration not stated)
Result string: FALSE

----------
Tested on: NCI-H226 lung
experimental_protocol: NCI tumour cell line growth inhibition, 48 h
recorded_endpoint: TGI

Worked examples follow.
molecule | TGI
CC1(C)OCC([C@H]2O[C@@H](CC(=S)NCCCCCCCCCCCCNC(=S)C[C@H]3O[C@@H](C4COC(C)(C)O4)[C@H]4OC(C)(C)O[C@H]43)[C@H]3OC(C)(C)O[C@H]32)O1 (some centres undefined) | > 100 µM
COC(=O)c1cc2c(cc1Cl)SC1=NN(C)C(N(C)C)N1S2(=O)=O (centres undefined) | > 100 µM
Cc1ccc(-c2nc([P+](c3ccccc3)(c3ccccc3)c3ccccc3)c(S(=O)(=O)c3ccc(C)cc3)o2)cc1 | 24.6 µM
O=CNCNCCO | > 100 µM
COC(=O)c1ccc2c(c1)S/C(=C/c1ccc3ccc4cccc5ccc1c3c45)S2 | > 100 µM
N[C@H](C(=O)O)[C@@H]1CC(Br)=NO1 | > 100 µM

Query string: Look up TGI: c1ccc(-c2nc(N3CCNCC3)c3oc(-c4ccccc4)nc3n2)cc1
Result string: 5.05 µM

Query string: Item CCOC(=O)C1(C(=O)OCC)[C@@H](c2ccccc2)C2=NO[C@@H]3CCC[C@H]1[C@H]23 has what recorded TGI?
Result string: > 100 µM

Query string: // query TGI value for entry CC1(C)CNCC(C)(OCc2ccccc2)C(=O)NC(C)(C)CNCC(C)(OCc2ccccc2)C(=O)N1 (centres undefined)
Result string: > 10 µM

----------
Tested on: UACC-62 melanoma
experimental_protocol: NCI tumour cell line growth inhibition, 48 h
recorded_endpoint: TGI (µM)
Give just the numeric value; µM need not be written.

Field: example entries. Status: answers known.
molecule | tested_on | units_text | TGI
Cc1cc(C)nc(NS(=O)(=O)c2ccc(NC(=O)c3cccc4c(Nc5ccc(S(=O)(=O)Nc6cc(C)on6)cc5)c5ccccc5nc34)cc2)n1 | UACC-62 melanoma | µM | 40.9
O=C(Nc1cccc(-n2cc(-c3ccncc3)c(-c3cc(O)cc(Cl)c3)n2)c1)c1cc(C(F)(F)F)cc(C(F)(F)F)c1 | UACC-62 melanoma | µM | 22.4

Turning to the following molecule.
Query string: Tell me the measured TGI of CCCCCCCCCCCCC(Br)C(=O)NCC(N)=O (stereo unspecified) , please.
Result string: 22.7

----------
Test system: NCI-H23 lung
experimental_protocol: NCI tumour cell line growth inhibition, 48 h
Listing: TGI of selected compounds

Observe how each entry below is paired with its result.
compound | TGI
CCN1CCC(O)(/C=C/c2ccccc2C)C(C(=O)/C=C/c2ccccc2C)C1 (stereo unspecified) | 4.11 µM
CCC(=O)C(CCN1CCC2(CCCc3ccccc32)CC1)(c1ccccc1)c1ccccc1 | 5.45 µM
O=S(=O)(c1cccc(N=C=S)c1)c1cccc(N=C=S)c1 | 32.9 µM
COc1ccc(N2C(=O)/C(=C\c3cc(OC)c(OC)c(OC)c3)SC2c2ccccc2)cc1 (stereo unspecified) | > 100 µM
C[N+](C)(C)CC1CCCC1=O (stereo unspecified) | 9.67 µM

Query string: So what does the record say about TGI for COc1cc(C(C)O)c[n+](Cc2ccccc2)c1 (stereo unspecified) ?
Result string: > 100 µM

Query string: What value of TGI has been reported for the following compound? Cc1ccc(S(=O)(=O)N/N=C(/CC(=O)c2c(C)n([O-])c3ccccc3[n+]2=O)C(=O)Nc2ccccc2C)cc1
Result string: > 100 µM

Query string: Given the entry COc1ccc(OC)c(N(CN2C(=O)CCC2C(=O)O)C(C)=O)c1 (stereo unspecified) , report its measured TGI.
Result string: > 100 µM
